# TARGET_ENTITY: porcine beta-2 adrenoceptor (Sus scrofa)
# Sequence (Q28997 whole entry): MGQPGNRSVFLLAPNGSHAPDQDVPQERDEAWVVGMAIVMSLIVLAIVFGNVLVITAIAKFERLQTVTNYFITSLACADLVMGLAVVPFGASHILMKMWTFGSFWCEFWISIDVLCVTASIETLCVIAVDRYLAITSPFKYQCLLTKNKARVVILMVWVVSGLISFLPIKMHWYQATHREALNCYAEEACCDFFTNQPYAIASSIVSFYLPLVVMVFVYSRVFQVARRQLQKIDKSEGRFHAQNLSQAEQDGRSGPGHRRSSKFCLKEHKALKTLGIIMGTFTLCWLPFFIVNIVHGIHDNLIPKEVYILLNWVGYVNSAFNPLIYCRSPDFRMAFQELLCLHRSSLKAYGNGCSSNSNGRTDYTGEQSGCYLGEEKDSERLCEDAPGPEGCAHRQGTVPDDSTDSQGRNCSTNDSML
# ASSAY: cAMP assay in CHO cells transfected with the porcine beta-2 adrenoceptor
# CONDITION_DESCRIPTION: cAMP (DiscoveRx Hit Hunter cAMP II) in CHO cells transfected with porcine beta-2 adrenoceptor, 30 minutes with compound, 0.5 mM IBMX
EC50 reference
MEASURED_PROPERTY: EC50 (nM)

| COMPOUND | MEASURED_PROPERTY | VALUE |
| --- | --- | --- |
| CC(CCc1ccc(OCC2CC2)cc1)N[C@@H]1CCn2c(=O)[nH]c3cccc(c32)[C@H]1O (mixture of isomers) [Example 1c] | EC50 | 4.8 |
| CC(CCc1c(F)cccc1Cl)N[C@@H]1CCn2c(=O)[nH]c3cccc(c32)[C@H]1O (mixture of isomers) | EC50 | 2.9 |
| C[C@@H](CCc1cccc(NC(=O)C(F)(F)F)c1)N[C@@H]1CCn2c(=O)[nH]c3cccc(c32)[C@H]1O (single isomer, unassigned) | EC50 | 7.1 |
| CC(CCc1cc(Cl)ccc1O)N[C@@H]1CCn2c(=O)[nH]c3cccc(c32)[C@H]1O (single isomer, unassigned) [Example 19b] | EC50 | 101 |
| CC(CCc1cc(C#N)ccc1O)N[C@@H]1CCn2c(=O)[nH]c3cccc(c32)[C@H]1O (mixture of isomers) | EC50 | 2.3 |
| CC(CCc1ccc(O)cc1)N[C@@H]1CCn2c(=O)[nH]c3cccc(c32)[C@H]1O (single isomer, unassigned) [Example 2b] | EC50 | 121 |
| Cc1ccccc1CCC(C)N[C@@H]1CCn2c(=O)[nH]c3cccc(c32)[C@H]1O (mixture of isomers) [Example 13b] | EC50 | 0.9 |
| CC(/C=C/c1ccccc1F)N[C@@H]1CCn2c(=O)[nH]c3cccc(c32)[C@H]1O (single isomer, unassigned) [Example 40b] | EC50 | 18 |
| CC(CCc1ccccc1O)N[C@@H]1CCn2c(=O)[nH]c3cccc(c32)[C@H]1O (mixture of isomers) [Example 6b] | EC50 | 1.4 |
| CC(CCc1ccc(NS(=O)(=O)C(F)(F)F)cc1)NC1CCn2c(=O)[nH]c3cccc(c32)C1O (single isomer, unassigned) | EC50 | 50.3 |
| CC(CCc1ccccc1)N[C@@H]1CCn2c(=O)[nH]c3cccc(c32)[C@H]1O (single isomer, unassigned) [Example 9e] | EC50 | 2.3 |
| CC(CCc1ccc(O)c(F)c1F)NC1CCn2c(=O)[nH]c3cccc(c32)C1O (single isomer, unassigned) | EC50 | 1.9 |
| CC(CCc1ccccc1OC(C)C)NC1CCn2c(=O)[nH]c3cccc(c32)C1O (stereo not shown) | EC50 | 1.8 |
